All values here come from ChEMBL document CHEMBL1148400.

Target: Glucocorticoid receptor (Homo sapiens)
Assay: Inhibition of [3H]dexamethasone binding to glucocorticoid receptor of human blood mononuclear cells
Measured [3H]dexamethasone bound, listed per entry for reference.
Give just the number in fmol/mL; leave the unit off.

[
  {
    "COMPOUND": "C[C@]12C=CC(=O)C=C1CCC1C2[C@@H](O)C[C@@]2(C)C1CC[C@]2(O)C(=O)COC(=O)c1cccc(CO[N+](=O)[O-])c1 (some centres not stated)",
    "[3H]dexamethasone bound (fmol/mL)": 19.8
  },
  {
    "COMPOUND": "C[C@]12C=CC(=O)C=C1CC[C@@H]1[C@@H]2[C@@H](O)C[C@@]2(C)[C@H]1CC[C@]2(O)C(=O)CO",
    "[3H]dexamethasone bound (fmol/mL)": 5.5
  },
  {
    "COMPOUND": "C[C@]12C=CC(=O)C=C1CCC1C2[C@@H](O)C[C@@]2(C)C1CC[C@]2(O)C(=O)COC(=O)CN1CCC(CCCO[N+](=O)[O-])CC1 (some centres not stated)",
    "[3H]dexamethasone bound (fmol/mL)": 2.3
  },
  {
    "COMPOUND": "C[C@]12C=CC(=O)C=C1CCC1C2[C@@H](O)C[C@@]2(C)C1CC[C@]2(O)C(=O)COC(=O)CN1CCC(CCO[N+](=O)[O-])CC1 (some centres not stated)",
    "[3H]dexamethasone bound (fmol/mL)": 1.7
  },
  {
    "COMPOUND": "C[C@]12C=CC(=O)C=C1CCC1C2[C@@H](O)C[C@@]2(C)C1CC[C@]2(O)C(=O)COC(=O)c1ccccc1CO[N+](=O)[O-] (some centres not stated)",
    "[3H]dexamethasone bound (fmol/mL)": 8.7
  },
  {
    "COMPOUND": "C[C@]12C=CC(=O)C=C1CCC1C2[C@@H](O)C[C@@]2(C)C1CC[C@]2(O)C(=O)COC(=O)c1ccc(CO[N+](=O)[O-])cc1 (some centres not stated)",
    "[3H]dexamethasone bound (fmol/mL)": 6.6
  }
]

Next item in the queue.
Input line: Which [3H]dexamethasone bound value is on record for C[C@]12C=CC(=O)C=C1CCC1C2[C@@H](O)C[C@@]2(C)C1CC[C@]2(O)C(=O)COC(=O)c1ccc(CO)cc1 (some centres not stated) ?
Output line: 5.3

###

Experiment: Water solubility was determined
Type: ADME
METRIC_NAME: solubility (µM)
Give just the number in µM; leave the unit off.

Check out these entries, answers already filled in.
[
  {
    "MOLECULE": "C[C@]12C=CC(=O)C=C1CCC1C2[C@@H](O)C[C@@]2(C)C1CC[C@]2(O)C(=O)COC(=O)CN1CCN(CCCO[N+](=O)[O-])CC1 (stereo partly specified)",
    "ASSAY_RESULT": 53300
  },
  {
    "MOLECULE": "C[C@]12C=CC(=O)C=C1CCC1C2[C@@H](O)C[C@@]2(C)C1CC[C@]2(O)C(=O)COC(=O)CN1CCN(CCO[N+](=O)[O-])CC1 (stereo partly specified)",
    "ASSAY_RESULT": 21300
  },
  {
    "MOLECULE": "C[C@]12C=CC(=O)C=C1CCC1C2[C@@H](O)C[C@@]2(C)C1CC[C@]2(O)C(=O)COC(=O)c1ccc(CO[N+](=O)[O-])cc1 (stereo partly specified)",
    "ASSAY_RESULT": 7
  },
  {
    "MOLECULE": "C[C@]12C=CC(=O)C=C1CC[C@@H]1[C@@H]2[C@@H](O)C[C@@]2(C)[C@H]1CC[C@]2(O)C(=O)CO [PREDNISOLONE]",
    "ASSAY_RESULT": 270
  },
  {
    "MOLECULE": "C[C@]12C=CC(=O)C=C1CCC1C2[C@@H](O)C[C@@]2(C)C1CC[C@]2(O)C(=O)COC(=O)CN1CCC(CCO[N+](=O)[O-])CC1 (stereo partly specified)",
    "ASSAY_RESULT": 710
  }
]

Next item in the queue.
Input line: Which solubility value is on record for C[C@]12C=CC(=O)C=C1CCC1C2[C@@H](O)C[C@@]2(C)C1CC[C@]2(O)C(=O)COC(=O)CN1CCC(CCCO[N+](=O)[O-])CC1 (stereo partly specified) ?
Output line: 150

###

Target: Glucocorticoid receptor (Homo sapiens) (UniProt P04150)
Test: Inhibition of [3H]dexamethasone binding to glucocorticoid receptor of human blood mononuclear cells
METRIC_NAME: [3H]dexamethasone bound (fmol/mL)
Give just the number in fmol/mL; leave the unit off.

Check out these entries, answers already filled in.
[
  {
    "COMPOUND": "C[C@]12C=CC(=O)C=C1CCC1C2[C@@H](O)C[C@@]2(C)C1CC[C@]2(O)C(=O)COC(=O)CN1CCN(CCO[N+](=O)[O-])CC1 (stereo partly drawn)",
    "UNIT_SYMBOL": "fmol/mL",
    "[3H]dexamethasone bound": 4.2
  },
  {
    "COMPOUND": "C[C@]12C=CC(=O)C=C1CCC1C2[C@@H](O)C[C@@]2(C)C1CC[C@]2(O)C(=O)COC(=O)CCCO[N+](=O)[O-] (stereo partly drawn)",
    "UNIT_SYMBOL": "fmol/mL",
    "[3H]dexamethasone bound": 1.6
  }
]

Next item in the queue.
Input line: Which [3H]dexamethasone bound value is on record for C[C@]12C=CC(=O)C=C1CCC1C2[C@@H](O)C[C@@]2(C)C1CC[C@]2(O)C(=O)COC(=O)CN1CCN(CCCO[N+](=O)[O-])CC1 (stereo partly drawn) ?
Output line: 2.1

###

Species: Mus musculus
Experiment: Compound was tested for the inhibition of neutrophil (PMN) extravasation in the zymosan-induced peritonitis mouse
Format: functional
Design: unit: PMN per peritoneal cavity
METRIC_NAME: Activity
API note: the answer field is a bare number with no unit suffix.

[
  {
    "COMPOUND": "C[C@]12C=CC(=O)C=C1CCC1C2[C@@H](O)C[C@@]2(C)C1CC[C@]2(O)C(=O)COC(=O)CCCO[N+](=O)[O-] (some centres undefined)",
    "METRIC_NAME": "Activity",
    "ASSAY_RESULT": 9100000
  },
  {
    "COMPOUND": "C[C@]12C=CC(=O)C=C1CCC1C2[C@@H](O)C[C@@]2(C)C1CC[C@]2(O)C(=O)COC(=O)CN1CCN(CCCO[N+](=O)[O-])CC1 (some centres undefined)",
    "METRIC_NAME": "Activity",
    "ASSAY_RESULT": 7800000
  },
  {
    "COMPOUND": "C[C@]12C=CC(=O)C=C1CCC1C2[C@@H](O)C[C@@]2(C)C1CC[C@]2(O)C(=O)COC(=O)c1ccc(CO[N+](=O)[O-])cc1 (some centres undefined)",
    "METRIC_NAME": "Activity",
    "ASSAY_RESULT": 4100000
  }
]

Next item in the queue.
Input line: Which Activity value is on record for C[C@]12C=CC(=O)C=C1CCC1C2[C@@H](O)C[C@@]2(C)C1CC[C@]2(O)C(=O)COC(=O)CN1CCN(CCO[N+](=O)[O-])CC1 (some centres undefined) ?
Output line: 9000000

###

Molecular target: Glucocorticoid receptor (Homo sapiens) (UniProt P04150)
Sequence (whole entry): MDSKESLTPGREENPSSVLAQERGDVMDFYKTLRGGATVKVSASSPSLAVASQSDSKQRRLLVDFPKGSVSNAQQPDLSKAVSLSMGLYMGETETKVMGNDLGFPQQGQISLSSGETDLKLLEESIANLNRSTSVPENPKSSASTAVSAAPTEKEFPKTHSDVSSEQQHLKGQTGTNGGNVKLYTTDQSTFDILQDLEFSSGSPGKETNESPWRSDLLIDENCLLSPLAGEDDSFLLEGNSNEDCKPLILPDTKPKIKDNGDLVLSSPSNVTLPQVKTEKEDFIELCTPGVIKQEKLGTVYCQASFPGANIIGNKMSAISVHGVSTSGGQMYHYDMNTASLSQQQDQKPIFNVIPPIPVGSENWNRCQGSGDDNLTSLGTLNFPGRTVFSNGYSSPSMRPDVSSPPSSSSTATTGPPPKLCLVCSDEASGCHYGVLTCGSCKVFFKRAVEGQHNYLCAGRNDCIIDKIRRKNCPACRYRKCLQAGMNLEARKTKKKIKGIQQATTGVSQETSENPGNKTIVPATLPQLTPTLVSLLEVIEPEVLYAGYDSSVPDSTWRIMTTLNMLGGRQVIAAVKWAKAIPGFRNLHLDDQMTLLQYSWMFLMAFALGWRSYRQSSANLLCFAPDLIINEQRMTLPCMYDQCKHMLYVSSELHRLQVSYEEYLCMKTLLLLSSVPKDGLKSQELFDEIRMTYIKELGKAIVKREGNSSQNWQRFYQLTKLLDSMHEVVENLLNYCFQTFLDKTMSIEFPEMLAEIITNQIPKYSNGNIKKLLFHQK
Test: Displacement of [3H]dexamethasone from glucocorticoid receptor of human blood mononuclear cells at 1 uM
Param threshold (80%) applies to Displacement; output Satisfied when value >= threshold, Not satisfied when value < threshold.

// below: answered molecules
[
  {
    "MOLECULE": "C[C@]12C=CC(=O)C=C1CCC1C2[C@@H](O)C[C@@]2(C)C1CC[C@]2(O)C(=O)COC(=O)c1ccccc1CO[N+](=O)[O-] (some centres undefined)",
    "LABEL_VALUE": "Not satisfied"
  },
  {
    "MOLECULE": "C[C@]12C=CC(=O)C=C1CCC1C2[C@@H](O)C[C@@]2(C)C1CC[C@]2(O)C(=O)COC(=O)c1ccc(CO)cc1 (some centres undefined)",
    "LABEL_VALUE": "Not satisfied"
  },
  {
    "MOLECULE": "C[C@]12C=CC(=O)C=C1CC[C@@H]1[C@@H]2[C@@H](O)C[C@@]2(C)[C@H]1CC[C@]2(O)C(=O)CO [PREDNISOLONE]",
    "LABEL_VALUE": "Not satisfied"
  },
  {
    "MOLECULE": "C[C@]12C=CC(=O)C=C1CCC1C2[C@@H](O)C[C@@]2(C)C1CC[C@]2(O)C(=O)COC(=O)CCCO[N+](=O)[O-] (some centres undefined)",
    "LABEL_VALUE": "Satisfied"
  },
  {
    "MOLECULE": "C[C@]12C=CC(=O)C=C1CCC1C2[C@@H](O)C[C@@]2(C)C1CC[C@]2(O)C(=O)COC(=O)CN1CCN(CCCO[N+](=O)[O-])CC1 (some centres undefined)",
    "LABEL_VALUE": "Satisfied"
  }
]

Input line: Record C[C@]12C=CC(=O)C=C1CCC1C2[C@@H](O)C[C@@]2(C)C1CC[C@]2(O)C(=O)COC(=O)CN1CCN(CCO[N+](=O)[O-])CC1 (some centres undefined) ; criterion: Displacement no lower than 80%. Met?
Output line: Not satisfied

Input line: Next molecule up: C[C@]12C=CC(=O)C=C1CCC1C2[C@@H](O)C[C@@]2(C)C1CC[C@]2(O)C(=O)COC(=O)CN1CCC(CCO[N+](=O)[O-])CC1 (some centres undefined)
Output line: Satisfied

Input line: Next molecule up: C[C@]12C=CC(=O)C=C1CCC1C2[C@@H](O)C[C@@]2(C)C1CC[C@]2(O)C(=O)COC(=O)c1ccc(CO[N+](=O)[O-])cc1 (some centres undefined)
Output line: Not satisfied
